experiment: Saquinavir in rat cerebrospinal fluid and brain after oral ONT-093 or vehicle; type: in vivo, Sprague Dawley rats; conditions: male, Sprague Dawley, rat, brain, oral, 20 mg/kg; Group 4: after vehicle; 30 min after saquinavir dose; individual animals 4001-4004
Readout: concentration at 30 min
Note: a bare number is incomplete; add the unit.

The recorded concentration at 30 min for `CC(C)(C)NC(=O)[C@@H]1C[C@@H]2CCCC[C@@H]2CN1C[C@@H](O)[C@H](Cc1ccccc1)NC(=O)[C@H](CC(N)=O)NC(=O)c1ccc2ccccc2n1` is 1.4 ng/mL

* * *

system: MCF-7/ADR; experiment: Reversal of MDR in P-gp-expressing cell line; format: cell-based; conditions: Homo sapiens, NCI/ADR-RES; MCF-7/ADR breast; ± SD; read-out: Formula 2 compound EC50, reversal of Doxorubicin resistance
Readout: pEC50
Numbers only, as −log10 of the molar value.

For `CCOC/C=C/c1ccc(-c2nc(-c3ccc(NC(C)C)cc3)c(-c3ccc(NC(C)C)cc3)[nH]2)cc1` the compound record lists pEC50 as 7.42

* * *

experiment: Cell proliferation assay; assay type: cell-based; conditions: human, MDA/LCC6^MDR1 breast carcinoma cells (P-gp positive); Breast carcinoma MDA/LCC6^MDR1, P-gp Pos; read-out: Formula 2 compound IC50 (inhibition of growth)
Readout: IC50 at 72 h

get_value(item= `CCOC/C=C/c1ccc(-c2nc(-c3ccc(NC(C)C)cc3)c(-c3ccc(NC(C)C)cc3)[nH]2)cc1` , readout=IC50 at 72 h) returns > 100 µM

Data origin, for the record: patent US20070203215A1
